Please respond with reported IC50 for every item in the list.
Molecular target: Plasma Kallikrein (Homo sapiens (Human))
Sequence (P03952 391-638): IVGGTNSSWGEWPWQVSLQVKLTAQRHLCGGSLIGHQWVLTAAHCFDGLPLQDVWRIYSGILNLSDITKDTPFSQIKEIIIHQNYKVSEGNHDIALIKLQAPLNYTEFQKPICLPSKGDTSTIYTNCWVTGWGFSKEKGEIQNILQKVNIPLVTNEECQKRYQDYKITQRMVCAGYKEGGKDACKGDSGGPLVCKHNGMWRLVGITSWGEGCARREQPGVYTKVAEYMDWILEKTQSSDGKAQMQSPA
Sequence (P03952 20-390 partner): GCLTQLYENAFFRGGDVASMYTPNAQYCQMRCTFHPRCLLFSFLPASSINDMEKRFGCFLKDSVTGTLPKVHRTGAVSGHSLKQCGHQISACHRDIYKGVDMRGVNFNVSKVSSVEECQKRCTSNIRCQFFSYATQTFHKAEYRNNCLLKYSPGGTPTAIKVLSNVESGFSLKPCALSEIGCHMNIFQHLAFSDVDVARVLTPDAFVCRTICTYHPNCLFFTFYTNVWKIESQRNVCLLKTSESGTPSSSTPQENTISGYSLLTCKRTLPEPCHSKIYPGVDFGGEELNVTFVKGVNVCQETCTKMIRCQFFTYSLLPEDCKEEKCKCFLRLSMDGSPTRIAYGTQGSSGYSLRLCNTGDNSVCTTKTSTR
Assay: Determination of related protease inhibition: Plasma Kallikrein (fluorogenic substrate at Km)
Conditions: 25° C., read-out: IC50 (human PKal)

*Q* What does the record list as IC50 for CN1CCC(OCc2ccc(CNc3ccc4c(N)nccc4c3)cc2)C(F)(F)C1 (centres unmarked) ?
*A* 10 to 40 µM

*Q* Then Cc1cc(NCc2ccc(NCC3CCN(C)CC3)nc2)c2cc[nH]c2c1 ?
*A* > 100 µM

*Q* Then CN1CCC(COc2ccc(CNc3ccc4c(N)nccc4c3)cn2)CC1 ?
*A* 3 to 10 µM

*Q* Then Cc1cc2c(NCc3ccc(NCC4CCN(C)CC4)nc3)ncnc2[nH]1 ?
*A* > 40 µM

*Q* Then CC(C)N1CCC(COc2cc(CNc3cccc4c(N)nccc34)ccn2)CC1 ?
*A* > 4 µM
